# Test system: Listeria innocua CLIP
# ASSAY METHOD TEXT: Deferred antagonism assay
# Type: cell-based
# CONDITIONS USED: nisin strain
Ends that are not written are not given here.

| SUBSTANCE | Activity score (zone) |
| --- | --- |
| NisinA M21G (ITSISLCTPGCKTGALMGCNGKTATCHCSIHVSK; not fully specified; also: lantibiotic: lanthionine rings and dehydro residues not placed; UniProt P13068 24-57, looked up, variant M21G) [nisin A derivative, hinge substitution M21G] | + (+, 1-5 mm zone) |
| NisinA K22A (ITSISLCTPGCKTGALMGCNMATATCHCSIHVSK; not fully specified; also: lantibiotic: lanthionine rings and dehydro residues not placed; UniProt P13068 24-57, looked up, variant K22A) [nisin A derivative, hinge substitution K22A] | + (+, 1-5 mm zone) |
| NisinA M21I (ITSISLCTPGCKTGALMGCNIKTATCHCSIHVSK; not fully specified; also: lantibiotic: lanthionine rings and dehydro residues not placed; UniProt P13068 24-57, looked up, variant M21I) [nisin A derivative, hinge substitution M21I] | − |
| NisinA M21S (ITSISLCTPGCKTGALMGCNSKTATCHCSIHVSK; not fully specified; also: lantibiotic nisin: dehydrated residues and thioether rings not placed; UniProt P13068 24-57, looked up, variant M21S) [nisin A derivative, hinge substitution M21S] | + (+, 1-5 mm zone) |
